The measured values listed here are drawn from the supplement of paper PMC10567573.

In this section we review reported protein stability index values for a set of variants.
B1: TBX5 (parent)
chain: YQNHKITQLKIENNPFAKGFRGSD

Variants of: B1
Assay: protein stability index of a GFP-peptide fusion (GPS, HEK-293T) (PSI 1-6); higher = more stable;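 further: lentivirally expressed fusions sorted by FACS into six bins by GFP to DsRed ratio, PSI derived from sequencing read proportions per bin multiplied by bin number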
Settings: c terminus: a fixed tail appended
Observation Type: protein stability index

Sequence Record: YQNHKITQLKCENNPFAKGFRGSD [I11C]
Assay Value: 2.48

Sequence Record: YQNHKITQLKIENNPFADGFRGSD [K18D]
Assay Value: 2.16

Sequence Record: YQNHKITQLKIENNPNAKGFRGSD [F16N]
Assay Value: 3.48

Sequence Record: YQNHKITQLKIENNPFAKGFRGTD [S23T]
Assay Value: 2.3

Sequence Record: YQNHLITQLKIENNPFAKGFRGSD [K5L]
Assay Value: 2.18

Sequence Record: YQNHKITQLKIENNPFAKGFFGSD [R21F]
Assay Value: 2.89

Sequence Record: YQNHKITQLKIENTPFAKGFRGSD [N14T]
Assay Value: 2.61

Sequence Record: YQNHKITGLKIENNPFAKGFRGSD [Q8G]
Assay Value: 2.73

Sequence Record: YQPHKITQLKIENNPFAKGFRGSD [N3P]
Assay Value: 2.57

Sequence Record: YQNHKITQLKIEYNPFAKGFRGSD [N13Y]
Assay Value: 1.77

Sequence Record: YQNHKITQLYIENNPFAKGFRGSD [K10Y]
Assay Value: 2.17

Sequence Record: MQNHKITQLKIENNPFAKGFRGSD [Y1M]
Assay Value: 3.79

Sequence Record: YQNHKITQLKIENNPKAKGFRGSD [F16K]
Assay Value: 3.31

Sequence Record: YQNHKNTQLKIENNPFAKGFRGSD [I6N]
Assay Value: 3.09

Sequence Record: YQNHKITQLKIENNPFAKHFRGSD [G19H]
Assay Value: 2.55

Sequence Record: YQDHKITQLKIENNPFAKGFRGSD [N3D]
Assay Value: 2.71

Sequence Record: YQNHKITQLKIENNPSAKGFRGSD [F16S]
Assay Value: 3.56

Sequence Record: YQNHKITQLKIENNPFAKGFYGSD [R21Y]
Assay Value: 2.96

Sequence Record: YQNHKICQLKIENNPFAKGFRGSD [T7C]
Assay Value: 1.94

Sequence Record: YKNHKITQLKIENNPFAKGFRGSD [Q2K]
Assay Value: 2.85

Sequence Record: YQNHKITFLKIENNPFAKGFRGSD [Q8F]
Assay Value: 1.7

Sequence Record: YQNHKITQLKIANNPFAKGFRGSD [E12A]
Assay Value: 2.32

Sequence Record: YQNHKITQLKIENNPEAKGFRGSD [F16E]
Assay Value: 3.64

Sequence Record: YQNHKITQTKIENNPFAKGFRGSD [L9T]
Assay Value: 2.37

Sequence Record: YQNHKIMQLKIENNPFAKGFRGSD [T7M]
Assay Value: 2.21

Sequence Record: YQNHKITQLDIENNPFAKGFRGSD [K10D]
Assay Value: 2.68

Sequence Record: YQNHKLTQLKIENNPFAKGFRGSD [I6L]
Assay Value: 2.45

Sequence Record: YQNHKITQLKIENNPFAKGFKGSD [R21K]
Assay Value: 2.64

Sequence Record: YWNHKITQLKIENNPFAKGFRGSD [Q2W]
Assay Value: 2.04

Sequence Record: YQNHKATQLKIENNPFAKGFRGSD [I6A]
Assay Value: 3.47

Sequence Record: YQNHKITQLKIENNLFAKGFRGSD [P15L]
Assay Value: 2.08

Sequence Record: YQNHKITQLKIENNPFAKGFRGGD [S23G]
Assay Value: 2.59

Sequence Record: YQNHKDTQLKIENNPFAKGFRGSD [I6D]
Assay Value: 3.53

Sequence Record: YQNHKITQLKIENSPFAKGFRGSD [N14S]
Assay Value: 2.16

Sequence Record: YQNGKITQLKIENNPFAKGFRGSD [H4G]
Assay Value: 2.57

Sequence Record: YQNHKITQLKIENNPFTKGFRGSD [A17T]
Assay Value: 2.43

Sequence Record: YQNHKITQLKISNNPFAKGFRGSD [E12S]
Assay Value: 2.11

Sequence Record: YQNHKVTQLKIENNPFAKGFRGSD [I6V]
Assay Value: 2.4

Sequence Record: YQNHKITQLQIENNPFAKGFRGSD [K10Q]
Assay Value: 2.5

Sequence Record: YQNHKITQLKIINNPFAKGFRGSD [E12I]
Assay Value: 1.81

Sequence Record: YQNHKTTQLKIENNPFAKGFRGSD [I6T]
Assay Value: 3.06

Sequence Record: YQNHKITQLKTENNPFAKGFRGSD [I11T]
Assay Value: 2.71

Sequence Record: YQNHKITQLKSENNPFAKGFRGSD [I11S]
Assay Value: 2.96

Sequence Record: YQNHKITQNKIENNPFAKGFRGSD [L9N]
Assay Value: 3.01

Sequence Record: YQNHKITQLKIENNPFAKGFRGFD [S23F]
Assay Value: 1.92

Sequence Record: YQNHKITQLTIENNPFAKGFRGSD [K10T]
Assay Value: 2.74

Sequence Record: YQNHKITQPKIENNPFAKGFRGSD [L9P]
Assay Value: 2.84

Sequence Record: YQNHKITQLKIENNPGAKGFRGSD [F16G]
Assay Value: 2.83

Sequence Record: YQNHKITQLKIENNPFAKGMRGSD [F20M]
Assay Value: 2.69

Sequence Record: YQNHKITQLKIENNQFAKGFRGSD [P15Q]
Assay Value: 2.32

Sequence Record: YQNHKITQLKIKNNPFAKGFRGSD [E12K]
Assay Value: 1.84

Sequence Record: YQNHKITQLKIEVNPFAKGFRGSD [N13V]
Assay Value: 1.81

Sequence Record: YQNHKITPLKIENNPFAKGFRGSD [Q8P]
Assay Value: 2.41

Sequence Record: YQNHKITQLKIENNPFAKNFRGSD [G19N]
Assay Value: 2.19

Sequence Record: YQNHKITRLKIENNPFAKGFRGSD [Q8R]
Assay Value: 1.99

Sequence Record: YHNHKITQLKIENNPFAKGFRGSD [Q2H]
Assay Value: 1.46

Sequence Record: YQNNKITQLKIENNPFAKGFRGSD [H4N]
Assay Value: 2.87

Sequence Record: YQNHKWTQLKIENNPFAKGFRGSD [I6W]
Assay Value: 4.36

Sequence Record: YQNHKITQLKIENNPFAKGFNGSD [R21N]
Assay Value: 2.61

Sequence Record: YQNHKITQLKHENNPFAKGFRGSD [I11H]
Assay Value: 2.33

Sequence Record: YQNHKITQLKIENNPFLKGFRGSD [A17L]
Assay Value: 2.34

Sequence Record: YQNHKITQLKIENNPFAKGIRGSD [F20I]
Assay Value: 2.47

Sequence Record: YQNHKITQLKIENNPFAEGFRGSD [K18E]
Assay Value: 3.08

Sequence Record: YQNHKITQLKIENNPFAKGFRGHD [S23H]
Assay Value: 2.47

Sequence Record: YQNHKITQLKIENNPCAKGFRGSD [F16C]
Assay Value: 3.17

Sequence Record: YQNHKITQLKIENNPFAKGFRGSS [D24S]
Assay Value: 2.14

Sequence Record: YVNHKITQLKIENNPFAKGFRGSD [Q2V]
Assay Value: 2.39

Sequence Record: YQNHMITQLKIENNPFAKGFRGSD [K5M]
Assay Value: 2

Sequence Record: DQNHKITQLKIENNPFAKGFRGSD [Y1D]
Assay Value: 3.46

Sequence Record: YQNHFITQLKIENNPFAKGFRGSD [K5F]
Assay Value: 1.84

Sequence Record: YQNHAITQLKIENNPFAKGFRGSD [K5A]
Assay Value: 2.7

Sequence Record: EQNHKITQLKIENNPFAKGFRGSD [Y1E]
Assay Value: 3.58

Sequence Record: YQNHKITQLKIENNPFAKGFRPSD [G22P]
Assay Value: 3.32

Sequence Record: YQNHKITQLVIENNPFAKGFRGSD [K10V]
Assay Value: 2.02

Sequence Record: QQNHKITQLKIENNPFAKGFRGSD [Y1Q]
Assay Value: 3.68

Sequence Record: YQNHKITQLKIENNNFAKGFRGSD [P15N]
Assay Value: 2.7

Sequence Record: SQNHKITQLKIENNPFAKGFRGSD [Y1S]
Assay Value: 2.82

Sequence Record: YQNHKIAQLKIENNPFAKGFRGSD [T7A]
Assay Value: 2.15

Sequence Record: YQNHKITQLKIENNPFAKGFIGSD [R21I]
Assay Value: 2.19

Sequence Record: YQNHKITQLKIENNPTAKGFRGSD [F16T]
Assay Value: 3.47

Sequence Record: YQNHKITQLKIENNPFAKGFAGSD [R21A]
Assay Value: 2.32

Sequence Record: YQNHKITQLKIENNPFAKGFRGST [D24T]
Assay Value: 2.11
